Origin of the recorded values: PubChem BioAssay (NCI)

Test system: EKVX NSCLC
Experiment: NCI tumour cell line growth inhibition, 48 h; in the data active = GI50 below about 0.43 µM; inactive = the rest
Possible outcomes: active, inactive

Compound	Label value
Cc1ccnc2[nH]c(-c3cccc4ccccc34)cc(=O)c12	active
COc1ccc(C(=O)/C=C/c2ccc(OCc3ccc(Cl)cc3)cc2)cc1OC	inactive
COc1ccc(NC(=O)c2sc3nc(C)c(C(=O)/C=C/c4ccccc4)cc3c2N)cc1	inactive
O=C1CS/C(=N/S(=O)(=O)c2ccc(N3N=C4c5ccccc5CC4C3c3cccs3)cc2)N(c2ccccc2)C1 (centres undefined)	inactive

----------
System: UACC-62 melanoma
Assay: NCI tumour cell line growth inhibition, 48 h
Quick reference: TGI of the listed items.
Measurement kind: TGI

Compound	Value observed
O=S(=O)(N/N=C/c1c(Cl)cccc1Cl)c1ccccc1	> 100 µM
Cc1ccc(-n2c(C)n[nH]c2=O)cc1	> 100 µM
N=C(c1ccc(-c2cn3cc(C(=N)N4CCCC4)ccc3n2)cc1)N1CCCC1	> 100 µM
NC(=O)[C@@H](CCC(F)(F)F)N(Cc1ccc(-c2ncon2)cc1F)S(=O)(=O)c1ccc(Cl)cc1	> 50.7 µM
Cc1nc2c(n1-c1ccc(Br)cc1)C(=O)c1ccccc1C2=O	> 85.1 µM
Cc1cccc(N2C(=O)C3c4[nH]c5ccccc5c4C4CCC(C(C)(C)C)CC4C3C2=O)c1C (stereo unspecified)	> 100 µM
O=C(/C=C/c1ccccc1O)C(c1ccccc1)c1ccccc1	> 100 µM
COc1ccc(-c2nc3cc(F)ccc3s2)cc1O	> 100 µM
O=C(/C=C/c1ccc2c(c1)OCO2)NCc1ccco1	> 100 µM
O=[N+]([O-])c1ccc(-c2nc(/C=N/N3CCCCC3)cs2)o1	> 100 µM
CO/C(N)=C(\C#N)N=Cc1ccccc1	> 100 µM
